System: HeLa
Test: Cytotoxicity against human HeLa cells after 72 hrs by MTT assay
Type: functional, cell-based
pIC50: −log10 of the molar value.
Classification field: enter rule met for pIC50 values not below 5, rule not met for values below it.

For orientation, consider the following solved cases.
INSERT INTO measurements (compound, group) VALUES
  ('C=C(C)[C@@H]1CC[C@]2(C(=O)n3ccnc3)CC[C@]3(C)[C@H](CC[C@@H]4[C@@]5(C)CCC(=O)C(C)(C)[C@@H]5CC[C@]43C)[C@@H]12', 'rule met'),
  ('C=C(C)[C@@H]1CC[C@]2(C(=O)n3ccnc3)CC[C@]3(C)[C@H](CC[C@@H]4[C@@]5(C)C=C(OC(=O)n6ccnc6)C(=O)C(C)(C)[C@@H]5CC[C@]43C)[C@@H]12', 'rule met'),
  ('C=C(C)[C@@H]1CC[C@]2(COC(C)=O)CC[C@]3(C)[C@H](CC[C@@H]4[C@@]5(C)CC[C@H](OC(=O)n6ccnc6)C(C)(C)[C@@H]5CC[C@]43C)[C@@H]12', 'rule not met'),
  ('C=C(C)[C@@H]1CC[C@]2(C(=O)n3ccnc3)CC[C@]3(C)[C@H](CC[C@@H]4[C@@]5(C)C=C(O)C(=O)C(C)(C)[C@@H]5CC[C@]43C)[C@@H]12', 'rule met'),
  ('C=C(C)[C@@H]1CC[C@]2(C(=O)O)CC[C@]3(C)[C@H](CC[C@@H]4[C@@]5(C)CC[C@H](OC(=O)n6ccnc6)C(C)(C)[C@@H]5CC[C@]43C)[C@@H]12', 'rule met');

Assess whether reported pIC50 for C=C(C)[C@@H]1CC[C@]2(C(=O)n3ccnc3)CC[C@]3(C)[C@H](CC[C@@H]4[C@@]5(C)C=CC(=O)C(C)(C)[C@@H]5CC[C@]43C)[C@@H]12 sits at 5 or higher.
rule met

Kindly determine if pIC50 recorded for C=C(C)[C@@H]1CC[C@]2(CO)CC[C@]3(C)[C@H](CC[C@@H]4[C@@]5(C)CC[C@H](OC(=O)n6ccnc6)C(C)(C)[C@@H]5CC[C@]43C)[C@@H]12 is above or exactly 5.
rule met

Assess whether reported pIC50 for C=C(C)[C@@H]1CC[C@]2(C(=O)O)CC[C@]3(C)[C@H](CC[C@@H]4[C@@]5(C)CC[C@H](O)C(C)(C)[C@@H]5CC[C@]43C)[C@@H]12 sits at 5 or higher.
rule not met

# check: pIC50 of C=C(C)[C@@H]1CC[C@]2(COC(=O)n3ccnc3)CC[C@]3(C)[C@H](CC[C@@H]4[C@@]5(C)CC[C@H](OC(=O)n6ccnc6)C(C)(C)[C@@H]5CC[C@]43C)[C@@H]12 is greater than or equal to 5
rule not met

====

System: MCF7
Assay: Cytotoxicity against human MCF7 cells at 20 uM after 72 hrs by MTT assay
Assay type: functional, cell-based
Calls of active or inactive are those of the source. The rule behind the calls is not given here.
measured.quantity: Activity

Below, each entry is followed by its recorded Activity result.
INSERT INTO measurements (compound, measured_quantity, test_value) VALUES
  ('C=C(C)[C@@H]1CC[C@]2(C(=O)O)CC[C@]3(C)[C@H](CC[C@@H]4[C@@]5(C)CC[C@H](O)C(C)(C)[C@@H]5CC[C@]43C)[C@@H]12', 'Activity', 'Active'),
  ('C=C(C)[C@@H]1CC[C@]2(COC(=O)n3ccnc3)CC[C@]3(C)[C@H](CC[C@@H]4[C@@]5(C)CC[C@H](O)C(C)(C)[C@@H]5CC[C@]43C)[C@@H]12', 'Activity', 'Active'),
  ('C=C(C)[C@@H]1CC[C@]2(C(=O)n3ccnc3)CC[C@]3(C)[C@H](CC[C@@H]4[C@@]5(C)C=C(O)C(=O)C(C)(C)[C@@H]5CC[C@]43C)[C@@H]12', 'Activity', 'Active'),
  ('C[C@@H](C=O)[C@@H]1CC[C@]2(COC(=O)n3ccnc3)CC[C@]3(C)[C@H](CC[C@@H]4[C@@]5(C)CC[C@H](O)C(C)(C)[C@@H]5CC[C@]43C)[C@@H]12', 'Activity', 'Active'),
  ('C=C(C)[C@@H]1CC[C@]2(C(=O)O)CC[C@]3(C)[C@H](CC[C@@H]4[C@@]5(C)CC[C@H](OC(=O)n6ccnc6)C(C)(C)[C@@H]5CC[C@]43C)[C@@H]12', 'Activity', 'Active');

Lab note: next compound to report on.
Please report the measured Activity for C=C(COC)[C@@H]1CC[C@]2(COC(=O)n3ccnc3)CC[C@]3(C)[C@H](CC[C@@H]4[C@@]5(C)CC[C@H](O)C(C)(C)[C@@H]5CC[C@]43C)[C@@H]12 tested on MCF7.
Active
